Source: the supplement of paper PMC6757056

B1: library; a variant is named by its letters at N, in order (parent)
chain: GCUGUCACCGAGAAACUGUGAAGUAUAUCUUAAACCUGGGCACUUAAAAGAUAUAUGGAGUUAGUAGUGCAACCUGCUCGGUCUGAUGAGUCCNNNNNNGGACGAAACAGC

- Variants of: B1
- Protocol notes: normalized RNA/DNA level without ligand (relative to sTRSVctl = 100) (log10 (% of sTRSVctl)); HEK293T; ligand: cyclic di-GMP (c-di-GMP-II aptamer); higher = less ribozyme self-cleavage, higher mRNA level
- Measurement context: reporter: mCherry (pCS4076), ligand present: no
Observable: normalized RNA/DNA level without ligand (log10)

Please review the entries below; each comes with its answer.
Item sequence | Experimental result
GCUGUCACCGAGAAACUGUGAAGUAUAUCUUAAACCUGGGCACUUAAAAGAUAUAUGGAGUUAGUAGUGCAACCUGCUCGGUCUGAUGAGUCCCUAGUUGGACGAAACAGC [CUAGUU] | 1.74
GCUGUCACCGAGAAACUGUGAAGUAUAUCUUAAACCUGGGCACUUAAAAGAUAUAUGGAGUUAGUAGUGCAACCUGCUCGGUCUGAUGAGUCCAGAGUAGGACGAAACAGC [AGAGUA] | 1.66
GCUGUCACCGAGAAACUGUGAAGUAUAUCUUAAACCUGGGCACUUAAAAGAUAUAUGGAGUUAGUAGUGCAACCUGCUCGGUCUGAUGAGUCCAAUUCCGGACGAAACAGC [AAUUCC] | 1.79
GCUGUCACCGAGAAACUGUGAAGUAUAUCUUAAACCUGGGCACUUAAAAGAUAUAUGGAGUUAGUAGUGCAACCUGCUCGGUCUGAUGAGUCCACACUGGGACGAAACAGC [ACACUG] | 1.48
GCUGUCACCGAGAAACUGUGAAGUAUAUCUUAAACCUGGGCACUUAAAAGAUAUAUGGAGUUAGUAGUGCAACCUGCUCGGUCUGAUGAGUCCCGGACUGGACGAAACAGC [CGGACU] | 1.48
GCUGUCACCGAGAAACUGUGAAGUAUAUCUUAAACCUGGGCACUUAAAAGAUAUAUGGAGUUAGUAGUGCAACCUGCUCGGUCUGAUGAGUCCAAGGUCGGACGAAACAGC [AAGGUC] | 1.61
GCUGUCACCGAGAAACUGUGAAGUAUAUCUUAAACCUGGGCACUUAAAAGAUAUAUGGAGUUAGUAGUGCAACCUGCUCGGUCUGAUGAGUCCGCCGCCGGACGAAACAGC [GCCGCC] | 1.72
GCUGUCACCGAGAAACUGUGAAGUAUAUCUUAAACCUGGGCACUUAAAAGAUAUAUGGAGUUAGUAGUGCAACCUGCUCGGUCUGAUGAGUCCACUACUGGACGAAACAGC [ACUACU] | 1.68
GCUGUCACCGAGAAACUGUGAAGUAUAUCUUAAACCUGGGCACUUAAAAGAUAUAUGGAGUUAGUAGUGCAACCUGCUCGGUCUGAUGAGUCCGAUAACGGACGAAACAGC [GAUAAC] | 1.67
GCUGUCACCGAGAAACUGUGAAGUAUAUCUUAAACCUGGGCACUUAAAAGAUAUAUGGAGUUAGUAGUGCAACCUGCUCGGUCUGAUGAGUCCCAACUAGGACGAAACAGC [CAACUA] | 1.39

Endpoint output: normalized RNA/DNA level without ligand (log10) of GCUGUCACCGAGAAACUGUGAAGUAUAUCUUAAACCUGGGCACUUAAAAGAUAUAUGGAGUUAGUAGUGCAACCUGCUCGGUCUGAUGAGUCCUCCAUCGGACGAAACAGC [UCCAUC] . Value? 1.7

Endpoint output: normalized RNA/DNA level without ligand (log10) of GCUGUCACCGAGAAACUGUGAAGUAUAUCUUAAACCUGGGCACUUAAAAGAUAUAUGGAGUUAGUAGUGCAACCUGCUCGGUCUGAUGAGUCCUACCUAGGACGAAACAGC [UACCUA] . Value? 1.68

Endpoint output: normalized RNA/DNA level without ligand (log10) of GCUGUCACCGAGAAACUGUGAAGUAUAUCUUAAACCUGGGCACUUAAAAGAUAUAUGGAGUUAGUAGUGCAACCUGCUCGGUCUGAUGAGUCCUGGUUGGGACGAAACAGC [UGGUUG] . Value? 1.69

Endpoint output: normalized RNA/DNA level without ligand (log10) of GCUGUCACCGAGAAACUGUGAAGUAUAUCUUAAACCUGGGCACUUAAAAGAUAUAUGGAGUUAGUAGUGCAACCUGCUCGGUCUGAUGAGUCCAGCGUUGGACGAAACAGC [AGCGUU] . Value? 1.68

Endpoint output: normalized RNA/DNA level without ligand (log10) of GCUGUCACCGAGAAACUGUGAAGUAUAUCUUAAACCUGGGCACUUAAAAGAUAUAUGGAGUUAGUAGUGCAACCUGCUCGGUCUGAUGAGUCCUAUCAUGGACGAAACAGC [UAUCAU] . Value? 1.66
